Target: T1, biotinylated V112E-PNT domain (ETV6 residues 43-135, V112E, with Avitag) (human, UniProt P41212 43-135, V112E, biotin on the Avitag (~50 to 95% biotinylated))
T1 construct: ETV6, human, residues 43-135 of V112E ETV6; also called biotinylated V112E-PNT domain ligand; V112E-PNT domain ligand; source: E. coli BL21 (λDE3) co-transformed with pET21a-BirA, purified (Ni-NTA, thrombin cleavage); not shown: His6, N-terminal, cleaved; Avitag, N-terminal, kept
T1 sequence (looked up): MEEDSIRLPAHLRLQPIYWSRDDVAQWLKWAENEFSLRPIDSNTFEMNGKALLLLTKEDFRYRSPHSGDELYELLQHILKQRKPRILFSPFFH
Test: SPR; biotinylated V112E-PNT domain ligand captured on streptavidin Sensor Chip SA, PNT domain analytes flowed; Biacore X100, 25 °C, HBS-EP+ (10 mM HEPES, 150 mM NaCl, 3 mM EDTA, 0.05% v/v Tween-20, pH 7.4); analyte 0.2-60 nM, re-run at 20-6000 nM if KD > 60 nM
Conditions: both partners purified
The reader will find reported Kd values listed item by item below.
Dear colleague, please return just the value in nM, with no unit written.

Prompt line: Requested read-out: Kd. Entry: D111A-A93D-PNT domain (domain or fragment, human, UniProt P41212 40-125, looked up, ETV6 PNT domain, human; source: E. coli BL21 (λDE3), purified (Ni-NTA, thrombin cleavage); not shown: His6, N-terminal, cleaved) ALRMEEDSIRLPAHLRLQPIYWSRDDVAQWLKWAENEFSLRPIDSNTFEMNGKDLLLLTKEDFRYRSPHSGAVLYELLQHILKQRK
Response line: 420

Prompt line: Requested read-out: Kd. Entry: E115A-A93D-PNT domain (domain or fragment, human, UniProt P41212 40-125, looked up, ETV6 PNT domain, human; source: E. coli BL21 (λDE3), purified (Ni-NTA, thrombin cleavage); not shown: His6, N-terminal, cleaved) ALRMEEDSIRLPAHLRLQPIYWSRDDVAQWLKWAENEFSLRPIDSNTFEMNGKDLLLLTKEDFRYRSPHSGDVLYALLQHILKQRK
Response line: 11

Prompt line: Requested read-out: Kd. Entry: A93D-PNT domain (ETV6 residues 40-125 with the A93D mutation) (domain or fragment, human, UniProt P41212 40-125, looked up, ETV6 PNT domain fragment, human, residues 40-125; expressed as residues 1-125 and cut by thrombin at the internal site V37-P38-R39/A40; 15N- or 13C/15N-labelled or unlabelled in NMR; also called A93D-PNT domain analyte; source: E. coli BL21 (λDE3), purified (Ni-NTA, thrombin cleavage, Superdex S75; size exclusion omitted for SPR); not shown: His6, N-terminal, cleaved) ALRMEEDSIRLPAHLRLQPIYWSRDDVAQWLKWAENEFSLRPIDSNTFEMNGKDLLLLTKEDFRYRSPHSGDVLYELLQHILKQRK
Response line: 7.5

Prompt line: Requested read-out: Kd. Entry: H108A-A93D-PNT domain (domain or fragment, human, UniProt P41212 40-125, looked up, ETV6 PNT domain, human; source: E. coli BL21 (λDE3), purified (Ni-NTA, thrombin cleavage); not shown: His6, N-terminal, cleaved) ALRMEEDSIRLPAHLRLQPIYWSRDDVAQWLKWAENEFSLRPIDSNTFEMNGKDLLLLTKEDFRYRSPASGDVLYELLQHILKQRK
Response line: 5.4

Prompt line: Requested read-out: Kd. Entry: L116A-A93D-PNT domain (domain or fragment, human, UniProt P41212 40-125, looked up, ETV6 PNT domain, human; gene purchased commercially (Biomatik); source: E. coli BL21 (λDE3), purified (Ni-NTA, thrombin cleavage); not shown: His6, N-terminal, cleaved) ALRMEEDSIRLPAHLRLQPIYWSRDDVAQWLKWAENEFSLRPIDSNTFEMNGKDLLLLTKEDFRYRSPHSGDVLYEALQHILKQRK
Response line: 3.3
